- Test system: Mythimna separata
- Assay: Insecticidal activity against Mythimna separata Walker assessed as mortality rate at 1 mg/mL after 10 days by leaf dipping method
- Assay type: functional
Consider the following molecules; for each one, report its Activity.
# output: bare number, implied unit %

Which Activity is reported for this molecule? CC(=O)O[C@H]1OC[C@@]23[C@H]4C(=O)[C@H](OC(C)=O)[C@@]5(C)C(c6ccoc6)C[C@H]6O[C@]65[C@]4(C)[C@H](O)C[C@H]2[C@]1(C)[C@H](OC(C)=O)C[C@@H]3O (single isomer, unassigned)
24.1

If you can, please state the reported Activity value of CC(=O)O[C@@H]1C[C@H](O)[C@@]23CO[C@H](OC(=O)c4ccccc4Cl)[C@]1(C)[C@@H]2C[C@@H](O)[C@]1(C)[C@@H]3C(=O)[C@H](OC(C)=O)[C@@]2(C)C(c3ccoc3)C[C@H]3O[C@@]312 (single isomer, unassigned) .
20.7

* * *

- System: Mythimna separata
- Assay: Insecticidal activity against Mythimna separata Walker assessed as mortality rate at 1 mg/mL after 35 days by leaf dipping method
- Type: functional
I'd be grateful if you could share measured Activity for these entries.
Field: numeric (%). Do not append units.

Bench note: what Activity did COc1ccc(C(=O)O[C@H]2OC[C@@]34[C@H]5C(=O)[C@H](OC(C)=O)[C@@]6(C)C(c7ccoc7)C[C@H]7O[C@]76[C@]5(C)[C@H](O)C[C@H]3[C@]2(C)[C@H](OC(C)=O)C[C@@H]4O)cc1 (single isomer, unassigned) show?
42.3

Given the compound CC(=O)O[C@@H]1C[C@H](O)[C@@]23CO[C@H](OC(=O)c4cccc(Cl)c4)[C@]1(C)[C@@H]2C[C@@H](O)[C@]1(C)[C@@H]3C(=O)[C@H](OC(C)=O)[C@@]2(C)C(c3ccoc3)C[C@H]3O[C@@]312 (single isomer, unassigned) , what is its reported Activity?
46.2

Activity lookup needed for CC(=O)O[C@@H]1C[C@H](O)[C@@]23CO[C@@H](O)[C@]1(C)[C@@H]2C[C@@H](O)[C@]1(C)[C@@H]3C(=O)[C@H](OC(C)=O)[C@@]2(C)[C@H](c3ccoc3)C[C@H]3O[C@]321 [TOOSENDANIN] , thanks.
50

I am curious: what Activity value has been reported for CC(=O)O[C@@H]1C[C@H](O)[C@@]23CO[C@H](OC(=O)c4ccccc4Cl)[C@]1(C)[C@@H]2C[C@@H](O)[C@]1(C)[C@@H]3C(=O)[C@H](OC(C)=O)[C@@]2(C)C(c3ccoc3)C[C@H]3O[C@@]312 (single isomer, unassigned) ?
38.5

Field request: Activity | item: CC(=O)O[C@@H]1C[C@H](O)[C@@]23CO[C@H](OC(=O)/C=C/c4ccccc4)[C@]1(C)[C@@H]2C[C@@H](O)[C@]1(C)[C@@H]3C(=O)[C@H](OC(C)=O)[C@@]2(C)C(c3ccoc3)C[C@H]3O[C@@]312 (single isomer, unassigned)
61.5

Would you kindly share the measured Activity for CC(=O)O[C@@H]1C[C@H](O)[C@@]23CO[C@H](OC(=O)c4ccc([N+](=O)[O-])cc4)[C@]1(C)[C@@H]2C[C@@H](O)[C@]1(C)[C@@H]3C(=O)[C@H](OC(C)=O)[C@@]2(C)C(c3ccoc3)C[C@H]3O[C@@]312 (single isomer, unassigned) ?
42.3

Quick check: Activity of CCC(=O)O[C@H]1OC[C@@]23[C@H]4C(=O)[C@H](OC(C)=O)[C@@]5(C)C(c6ccoc6)C[C@H]6O[C@]65[C@]4(C)[C@H](O)C[C@H]2[C@]1(C)[C@H](OC(C)=O)C[C@@H]3O (single isomer, unassigned) ?
53.9

Requested field: Activity. Item: CC(=O)O[C@@H]1C[C@H](O)[C@@]23CO[C@H](OC(=O)c4ccc(Cl)cc4)[C@]1(C)[C@@H]2C[C@@H](O)[C@]1(C)[C@@H]3C(=O)[C@H](OC(C)=O)[C@@]2(C)C(c3ccoc3)C[C@H]3O[C@@]312 (single isomer, unassigned)
50

Form field: reported Activity of CCCC(=O)O[C@H]1OC[C@@]23[C@H]4C(=O)[C@H](OC(C)=O)[C@@]5(C)C(c6ccoc6)C[C@H]6O[C@]65[C@]4(C)[C@H](O)C[C@H]2[C@]1(C)[C@H](OC(C)=O)C[C@@H]3O (single isomer, unassigned)
73.1
